Numbers sourced from patent US9724351B2.

# experiment_summary: Cytotoxicity Determination
# Type: cell-based
# stated_conditions: human, HEp-2 cells, without addition of virus, CCK-8 readout, bins (Table 4: greater than 100 μM; Table 5: equal to or less than 100 μM and greater than 10 μM), read-out: 50% cytotoxicity concentration (CC50)
Measured CC50 at 5 days accompanies every entry in the list below.

compound	CC50 at 5 days
COc1ccc(C(=O)NCC(=O)N2CCC(c3csc4c(F)cccc34)=N2)cc1OC	10 to 100 µM
CCN(CC)c1ccc(C(=O)NCC(=O)N/N=C(\C)c2csc3ccccc23)cc1	10 to 100 µM
COc1ccc(C(=O)NCC(=O)N/N=C/c2ccc3ccsc3c2)cc1OC	10 to 100 µM
COc1cc(C(=O)NCC(=O)N/N=C(\C)c2csc3ccccc23)ccc1O	10 to 100 µM
CCCC/C(=N\NC(=O)CNC(=O)c1ccc(OC)c(OC)c1)c1csc2c(F)cccc12	10 to 100 µM
COc1cc(C(=O)NCC(=O)c2ccc(OC)c(-c3ccc(F)c(CF)c3)n2)ccc1OCCO	> 100 µM
CCCc1cc(C(=O)CNC(=O)c2ccc(OC)c(OC)c2)nc(-c2csc3c(F)cccc23)c1	10 to 100 µM
COc1ccc(C(=O)NCC(=O)N/N=C2\CCc3ccccc32)cc1OC	> 100 µM
COc1ccc(C(=O)NN(C)C(=O)c2cccc(-c3csc4c(F)cccc34)n2)cc1OC	10 to 100 µM
COc1ccc(C(=O)NCC(=O)N/N=C2\CCCc3sc4ccccc4c32)cc1OC	> 100 µM
COc1ccc(C(=O)NCC(=O)N/N=C(\C)c2c(Br)sc3ccccc23)cc1OC	10 to 100 µM
C/C(=N\NC(=O)CNC(=O)c1ccc2c(c1)OCCO2)c1csc2ccccc12	> 100 µM
C=CCC/C(=N\NC(=O)CNC(=O)c1ccc(OCC)c(OC)c1)c1csc2ccccc12 [Compound 458A]	10 to 100 µM
CC(C)Oc1ccc(C(=O)NCC(=O)N/N=C/c2csc3ccccc23)cc1	10 to 100 µM
COc1ccc(C(=O)NCC(=O)c2ccnc(-c3csc4c(F)cccc34)n2)cc1OC	> 100 µM
COc1ccc(C(=O)NCC(=O)c2coc(-c3csc4c(F)cccc34)n2)cc1OC	> 100 µM
COc1ccc(C(=O)NCC(=O)c2ccc(OC)c(-c3cccc4ncccc34)n2)cc1OC	10 to 100 µM
COc1ccc(C(=O)NCC(=O)Nc2ccc3c(-c4ccccc4)c[nH]c3c2)cc1OC	> 100 µM

----------
# experiment_summary: Cytotoxicity Determination
# Format: cell-based
# stated_conditions: human, HEp-2 cells, without addition of virus, CCK-8 readout, bins (Table 4: greater than 100 μM; Table 5: equal to or less than 100 μM and greater than 10 μM), read-out: 50% cytotoxicity concentration (CC50)

smiles_repr	CC50 at 5 days
COc1ccc(C(=O)NCC(=O)N/N=C2\CCc3sc4ccccc4c32)cc1OC	10 to 100 µM
COc1cc(C(=O)NCC(=O)c2cc(N(C)C)cc(-c3csc4c(F)cccc34)n2)ccc1OCCO	> 100 µM
COc1cc(C(=O)NCC(=O)c2ccc(OC)c(-c3ccc(F)c(Cl)c3)n2)ccc1OC(F)F	10 to 100 µM
COc1ccc(C(=O)NCC(=O)c2ccc(OC)c(-c3cccc4c(F)cccc34)n2)cc1OC	10 to 100 µM
COc1ccc(C(=O)NCC(=O)c2ccc(OC)c(-c3ccnc(Cl)c3)n2)cc1OC	> 100 µM
COc1cc(C(=O)NCC(=O)c2ccc(OC)c(-c3ccc(F)c(C(F)(F)F)c3)n2)ccc1OCCO	> 100 µM

----------
# experiment_summary: Cytotoxicity Determination
# Type: cell-based
# stated_conditions: human, HEp-2 cells, without addition of virus, CCK-8 readout, bins (Table 4: greater than 100 μM; Table 5: equal to or less than 100 μM and greater than 10 μM), read-out: 50% cytotoxicity concentration (CC50)
# Protocol: In order to determine the compound cytotoxicity, in parallel, each of the compounds is applied to duplicate wells in a 384-well cell plate at serial final concentrations starting from 100 μM using ½ stepwise dilutions for 7 points without addition of virus. Incubate the cells at 37° C., 5% CO2 for 5 days. Add 6 μl CCK-8 into each well and incubate in a CO2 incubator at 37° C. for 3-4 hours. […]
CC50 at 5 days reference
attribute_measured: CC50 at 5 days

smiles_repr	attribute_measured	value
COCCc1ccc(C(=O)NCC(=O)c2ccc(OC)c(-c3ccc(F)c(Br)c3)n2)cc1OC	CC50 at 5 days	10 to 100 µM
COc1ccc(C(=O)NCC(=O)N/N=C2\CCNc3ccccc32)cc1OC	CC50 at 5 days	> 100 µM
COc1cc(C(=O)NCC(=O)c2ccc(OC)c(-c3ccc(F)c(Cl)c3)n2)ccc1OCC1CC1	CC50 at 5 days	10 to 100 µM
COCC/C(=N/NC(=O)CNC(=O)c1ccc(OC)c(OC)c1)c1csc2c(F)cccc12	CC50 at 5 days	> 100 µM
COc1ccc(C(=O)NCCc2nccc(-c3csc4c(F)cccc34)n2)cc1OC	CC50 at 5 days	> 100 µM
COc1cc(C(=O)NCC(=O)N(C)/N=C/c2c(F)sc3c(F)cccc23)ccc1OCCO	CC50 at 5 days	10 to 100 µM
COc1cc(C(=O)NCC(=O)c2ccc(OC)c(-c3c[nH]c4c(F)cccc34)n2)ccc1OCCO	CC50 at 5 days	> 100 µM
COc1cc(C(=O)NCC(=O)N2CCN(c3ccc(F)c(Cl)c3)C2=O)ccc1OCCO	CC50 at 5 days	> 100 µM
COc1ccc(C(=O)NCC(=O)c2ccc(O)c(-c3csc4c(F)cccc34)n2)cc1OC	CC50 at 5 days	10 to 100 µM
COc1cc(C(=O)CNC(=O)c2ccc(OC)c(OC)c2)nc(-c2ccc(O)cc2)c1	CC50 at 5 days	10 to 100 µM
COc1ccc(C(=O)NCC(=O)N2CCCN(c3csc4c(F)cccc34)C2=O)cc1OC	CC50 at 5 days	10 to 100 µM
COc1ccc(C(=O)NCC(=O)N/N=C(\C)c2csc3c(N)cccc23)cc1OC	CC50 at 5 days	> 100 µM
COc1cc(C(=O)NCC(=O)c2ccc(OC)c(-c3ccc(F)c(C(F)F)c3)n2)ccc1OCCO	CC50 at 5 days	> 100 µM

----------
Entries annotated with measured CC50 at 5 days
# experiment_summary: Cytotoxicity Determination
# Format: cell-based
# stated_conditions: human, HEp-2 cells, without addition of virus, CCK-8 readout, bins (Table 4: greater than 100 μM; Table 5: equal to or less than 100 μM and greater than 10 μM), read-out: 50% cytotoxicity concentration (CC50)

compound	CC50 at 5 days
COc1ccc(C(=O)NCC(=O)c2nc(-c3csc4c(F)cccc34)cn2CC(C)C)cc1OC	> 100 µM
COc1ccc(C(=O)NCC(=O)N/N=C2\CCOc3ccccc32)cc1OC	> 100 µM
COc1ccc(C(=O)NCC(=O)N/N=C(/c2ccccc2)c2ccc(F)cc2)cc1OC	> 100 µM
COc1ccc(C(=O)NCC(=O)c2ccc(OC)c(-c3ccc4[nH]c(C)nc4c3)n2)cc1OC	10 to 100 µM
CCc1cc(C(=O)CNC(=O)c2ccc(OCCO)c(OC)c2)nc(-c2ccc(F)cc2)c1	10 to 100 µM
COc1cc(C(=O)NCC(=O)c2ccc(OC)c(-c3ccc(Cl)c(C(F)(F)F)c3)n2)ccc1OCCO	> 100 µM
COCC/C(=N/NC(=O)CNC(=O)c1ccc(OC)c(OC)c1O)c1csc2c(F)cccc12	> 100 µM
COc1ccc(C(=O)NCC(=O)c2ccc(OC)c(-c3c(C)ccnc3Cl)n2)cc1OC	10 to 100 µM
CCc1ccc(C(=O)CNC(=O)c2ccc(OC)c(OC)c2)nc1-c1csc2c(F)cccc12	10 to 100 µM
COc1cc(C(=O)NC(C)C(=O)c2ccc(OC)c(-c3ccc(F)c(Cl)c3)n2)ccc1OCCO (stereo not drawn)	10 to 100 µM
COc1ccc(C(=O)NCC(=O)c2cn(C)cc(-c3csc4c(F)cccc34)c2=O)cc1OC	10 to 100 µM
COc1cc(C(=O)NCC(=O)N/N=C(\C)c2csc3ccccc23)ccc1OCC1CC1	10 to 100 µM
COc1ccc(C(=O)NCC(=O)c2ccc(OC)c(-c3cccc4ccccc34)n2)cc1OC	10 to 100 µM
CCOc1cc(C(=O)NCC(=O)N/N=C(\C)c2csc3ccccc23)ccc1N(CC)CC	10 to 100 µM
COC/C(=N\NC(=O)CNC(=O)c1ccc(OC)c(OC)c1)c1csc2ccccc12	> 100 µM
COc1ccc(C(=O)NCC(=O)c2cc(C)cc(-c3csc4c(F)cccc34)n2)cc1OC	> 100 µM
COc1ccc(C(=O)NCC(=O)c2ccc3ccccc3n2)cc1OC	> 100 µM
C=C(C)/C(=N\NC(=O)CNC(=O)c1ccc(OC)c(OC)c1)c1csc2ccccc12	> 100 µM
COc1cc(C(=O)NCC(=O)c2cc(C(C)(C)C)cc(-c3ccc(F)c(Cl)c3)n2)ccc1OCCO	10 to 100 µM
COc1ccc(C(=O)NCC(=O)c2cc(C(C)(C)C)cc(-c3csc4c(F)cccc34)n2)cc1OC	> 100 µM
CCOc1ccc(C(=O)NCC(=O)Nc2nc3ccccc3n2CCOC)cc1OC	> 100 µM
COc1cc(C(=O)NCC(=O)c2ccc(OC)c(-c3ccc(F)c(F)c3)n2)ccc1OCCO	> 100 µM
COc1cc(C(=O)NCC(=O)c2ccc(OC)c(-c3ccnc(F)c3)n2)ccc1OCCO	> 100 µM
COc1ccc(C(=O)CNC(=O)c2cc(C)on2)nc1-c1ccc(F)c(Cl)c1	> 100 µM
